The measurements presented in this section are drawn from paper PMC10830635.

Can you tell me CC50 at 2 days for the items I'm about to list?
method_summary: MTT cytotoxicity assay, HPLF
Type: cell-based
settings: human, normal periodontal ligament fibroblasts (HPLF), normal cells, 2 days exposure

Req: Look up and report measured CC50 at 2 days for this entry: O=c1[nH]cc(F)c(=O)[nH]1 [5-FU, 5-fluorouracil]
Resp: > 1000 µM

Req: Give the reported value of CC50 at 2 days for this record: COc1cccc2c1C(=O)c1c(O)c3c(c(O)c1C2=O)C[C@@](O)(C(=O)CO)C[C@@H]3O[C@H]1C[C@H](N)[C@H](O)[C@H](C)O1 [Doxorubicin, doxorubicin]
Resp: > 10 µM

Req: Dear colleague, please send me the reported CC50 at 2 days for N[C@@H](Cc1ccc(N(CCCl)CCCl)cc1)C(=O)O [Melphalan, melphalan] when you can.
Resp: > 200 µM
